- target.desc: HLA-A*02:01
- assay.procedure: IEDB peptide-MHC binding, purified MHC/competitive/radioactivity; filed as Kd, often an IC50 or EC50 that approximates it; bounds were set here for any values at or beyond the usual limits of such assays
- condition.notes: source organism: Homo sapiens
parameter.measured: Kd

>>> observed("ALDLAKKRV")
"≥ 10 µM"
>>> observed("ATGRNECDV")
"≥ 10 µM"
>>> observed("LAFLQYRRL")
"≥ 10 µM"

Shifting focus to the sequence that follows.
Q) Look up Kd of QLGYSYAIDL and report it.
A) 2.63 µM

* * *

Recorded IC50 by entry
- target.desc: HLA-A*02:01
- assay.procedure: IEDB peptide-MHC binding, purified MHC/competitive/radioactivity; bounds were set here for any values at or beyond the usual limits of such assays
- condition.notes: source organism: Homo sapiens
Use nM as the unit, but write only the number.

Q) Please indicate IC50 recorded for FVTWHRYHL
A) 943

Q) Give recorded IC50. TLLVVMGTLV
A) 357

Q) Input QVMSLHNLV , output reported IC50.
A) 676

Q) Indicate its recorded IC50; the sequence in question is VTWHRYHLL
A) 161
